Values from patent US7772263B2

- measurement_target: purified catalytic domain of recombinant human TACE (rhTACEc) (Homo sapiens, UniProt P78536, N452Q/S266A)
- Construct: rhTACEc, Residue 215 to 477 with two mutation (S266A and N4520) and a 6×His tail; 6xHis (C); made in house; host or cells: baculovirus/Hi5 insect cells
- Sequence (P78536 215-477 S266A/N452Q limits assumed): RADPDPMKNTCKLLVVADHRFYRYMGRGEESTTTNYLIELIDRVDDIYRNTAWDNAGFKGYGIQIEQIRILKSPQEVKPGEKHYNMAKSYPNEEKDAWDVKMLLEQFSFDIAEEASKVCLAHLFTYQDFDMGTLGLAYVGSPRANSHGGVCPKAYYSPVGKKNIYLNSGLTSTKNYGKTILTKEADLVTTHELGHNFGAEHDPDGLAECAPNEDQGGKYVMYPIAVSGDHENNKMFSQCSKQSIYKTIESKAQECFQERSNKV
- assay_procedure: TACE kinetic assay, cleavage of internally quenched fluorescent peptide substrate SPDL-3
- Assay type: biochemical
- condition_info: Ki (nM), TACE inhibitory activity, rhTACEc 70 pM, 30 μM SPDL-3, 90 min pre-incubation at 25° C.
Examples of compounds with documented Ki follow.
measure: Ki (nM)

smiles_string: COc1ccc2c(c1)C(=O)N(C[C@@]1(C#Cc3ccc4[nH]ccc4c3)NC(=O)NC1=O)C2
measurement: 0.17

smiles_string: COc1ccc2c(c1)C(=O)N(C[C@@]1(C#Cc3ccccc3F)NC(=O)NC1=O)C2
measurement: 0.13

====

- measurement_target: purified catalytic domain of recombinant human TACE (rhTACEc) (Homo sapiens, UniProt P78536, N452Q/S266A)
- Construct: rhTACEc, Residue 215 to 477 with two mutation (S266A and N4520) and a 6×His tail; 6xHis (C); made in house; host or cells: baculovirus/Hi5 insect cells
- assay_procedure: TACE kinetic assay, cleavage of internally quenched fluorescent peptide substrate SPDL-3
- Format: biochemical
- condition_info: TACE inhibition, Table 1001; read-out: Ki Rating

compound: O=C1NC(=O)[C@](C#Cc2cc(F)cc(F)c2)(CN2Cc3ccc(OC(F)F)cc3C2=O)N1
Ki: > 100 nM
//
compound: COc1ccc2c(c1)C(=O)N(C[C@]1(C#Cc3ccccc3C(C)C)NC(=O)NC1=O)C2
Ki: 5 to 25 nM
//
compound: COc1ccc2c(c1)C(=O)N(C[C@@]1(C#Cc3cncc4ccccc34)NC(=O)NC1=O)C2
Ki: < 5 nM
//
compound: COc1ccc2c(c1)C(=O)N(C[C@@]1(C#Cc3ccc(Cl)cc3)NC(=O)NC1=O)C2
Ki: < 5 nM
//
compound: COc1ccc2c(c1)C(=O)N(C[C@@]1(C#Cc3c[nH]c(C)n3)NC(=O)NC1=O)C2
Ki: < 5 nM
//
compound: COc1ccc2c(c1)C(=O)N(CC1(C#Cc3ccc(F)cc3F)NC(=O)NC1=O)C2 (stereo not drawn) [Compound 315A]
Ki: < 5 nM
//
compound: COc1ccc2c(c1)C(=O)N(C[C@@]1(C#Cc3ccc(OC)c(F)c3)NC(=O)NC1=O)C2
Ki: < 5 nM
//
compound: COc1ccc2c(c1)C(=O)N(C[C@@]1(C#Cc3cnc(C)n3C)NC(=O)NC1=O)C2
Ki: < 5 nM
//
compound: COc1ccc2c(c1)C(=O)N(C[C@@]1(C#Cc3cscn3)NC(=O)NC1=O)C2
Ki: < 5 nM
//
compound: COc1ccc2c(c1)C(=O)N(C[C@@]1(C#Cc3ncnc4ccccc34)NC(=O)NC1=O)C2
Ki: < 5 nM
//
compound: COc1ccc2c(c1)C(=O)N(C[C@]1(C#Cc3cnc4ncccc4c3)NC(=O)NC1=O)C2
Ki: 25 to 100 nM
//
compound: COc1ccc2c(c1)C(=O)N(CC1(C#Cc3ccc4ncsc4c3)NC(=O)NC1=O)C2 (stereo not drawn)
Ki: < 5 nM

====

- measurement_target: purified catalytic domain of recombinant human TACE (rhTACEc) (Homo sapiens, UniProt P78536, N452Q/S266A)
- Construct: rhTACEc, Residue 215 to 477 with two mutation (S266A and N4520) and a 6×His tail; 6xHis (C); made in house; host or cells: baculovirus/Hi5 insect cells
- assay_procedure: TACE kinetic assay, cleavage of internally quenched fluorescent peptide substrate SPDL-3
- Type: biochemical
- condition_info: TACE; class letters A-D; read-out: Ki Rating

compound: CCOc1cccc(C#C[C@]2(CN3Cc4ccc(OC)cc4C3=O)NC(=O)NC2=O)c1 [Compound 1046]
Ki: < 5 nM

compound: COc1ccc2c(c1)C(=O)N(C[C@@]1(C#Cc3cccc(COCC4CC4)c3)NC(=O)NC1=O)C2 [Compound 1059]
Ki: < 5 nM

compound: COc1ccc2c(c1)C(=O)N(C[C@@]1(C#Cc3ccc(C(=O)NS(C)(=O)=O)cc3)NC(=O)NC1=O)C2 [Compound 1550]
Ki: 5 to 25 nM

compound: COC(=O)c1cc(C#C[C@]2(CN3Cc4ccc(OC)cc4C3=O)NC(=O)NC2=O)ccn1 [Compound 1511]
Ki: < 5 nM

compound: COc1ccc2c(c1)C(=O)N(C[C@]1(C#Cc3ccc(C(C)O)cc3)NC(=O)NC1=O)C2 (stereo partly drawn) [Compound 1075]
Ki: > 100 nM

compound: CCNc1nnc(-c2ccc(C#C[C@]3(CN4Cc5ccc(OC)cc5C4=O)NC(=O)NC3=O)cn2)o1 [Compound 1502]
Ki: < 5 nM

compound: CON=C(C)c1ccc(C#C[C@]2(CN3Cc4ccc(OC)cc4C3=O)NC(=O)NC2=O)cc1 [Compound 1565]
Ki: < 5 nM

compound: COc1ccc2c(c1)C(=O)N(C[C@@]1(C#Cc3ccnc(C(N)=O)c3)NC(=O)NC1=O)C2 [Compound 1512]
Ki: < 5 nM

compound: COc1ccc2c(c1)C(=O)N(C[C@]1(C#Cc3cnc4[nH]c(C)nc4c3C)NC(=O)NC1=O)C2 [Compound 1094]
Ki: > 100 nM
